Reported values of polymerase ribozyme fitness (log ratio) for individual entries
B1: TPR t1 (parent)
chain: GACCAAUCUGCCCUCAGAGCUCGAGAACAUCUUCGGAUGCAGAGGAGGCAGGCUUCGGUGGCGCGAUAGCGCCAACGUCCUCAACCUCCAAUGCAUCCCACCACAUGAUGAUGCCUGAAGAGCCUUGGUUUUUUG

Variants of: B1
Assay: polymerase ribozyme fitness, log enrichment relative to wild type (log ratio); higher = more active; in vitro selection for triplet polymerase activity
ENDPOINT: polymerase ribozyme fitness (log ratio)

| MUTATION_STRING | ENDPOINT | VALUE_OBSERVED |
| --- | --- | --- |
| C8A A37U C104A | polymerase ribozyme fitness (log ratio) | -1.64 |
| U7G G36C | polymerase ribozyme fitness (log ratio) | 0.162 |
| A46U U131C | polymerase ribozyme fitness (log ratio) | -1.72 |
| C11G C40A C72U C101U C104U | polymerase ribozyme fitness (log ratio) | -1.72 |
| C12U A46C G52U | polymerase ribozyme fitness (log ratio) | -0.969 |
| A27U C28G G110C | polymerase ribozyme fitness (log ratio) | -4 |
| A50U G117C G120C | polymerase ribozyme fitness (log ratio) | -5.84 |
| G10A U21G G52A G69C U78G C115G U133G | polymerase ribozyme fitness (log ratio) | -7.23 |
| A26C G117C G122A | polymerase ribozyme fitness (log ratio) | -7.15 |
| G51C C62U | polymerase ribozyme fitness (log ratio) | -3.45 |
| U54C G122A G128U | polymerase ribozyme fitness (log ratio) | -3.12 |
| C3U G122A | polymerase ribozyme fitness (log ratio) | -1.01 |
| C49G U55C A95C C98U | polymerase ribozyme fitness (log ratio) | -3.54 |
| A29U G127A | polymerase ribozyme fitness (log ratio) | -4.12 |
| C49U C53U | polymerase ribozyme fitness (log ratio) | -0.552 |
| A43G C62U C72A G113C | polymerase ribozyme fitness (log ratio) | -2.93 |
| C15U C22G U54G G71U G93A G122A C123U | polymerase ribozyme fitness (log ratio) | -4.87 |
| C94G U109C A121U | polymerase ribozyme fitness (log ratio) | -6.64 |
| C11G C15A U106A G117U G127U | polymerase ribozyme fitness (log ratio) | -0.216 |
| G42C G44C C56U C104U | polymerase ribozyme fitness (log ratio) | -0.811 |
| C53A C56G G71C G127C | polymerase ribozyme fitness (log ratio) | -1.96 |
| C20U A41G G60C | polymerase ribozyme fitness (log ratio) | -2.04 |

Numbers sourced from the RNAGym collection of RNA variant scans (doi:10.1073/pnas.2313332121).
